- TARGET_OR_SYSTEM: T1, recombinant human sCD4 CF (manufactured by R&D Systems) (human, UniProt P01730 26-390, limits assumed)
- T1 construct: Immobilized on the Biacore sensor chip; also called recombinant CD4; CD4 antigen
- METHOD_SUMMARY: SPR, Biacore T-200, CD4 immobilized on chip, as in Example 2
READOUT: koff

>>> experimental_value("anti-CD4 with barcode 4-8 (VHH, secreted from Pichia pastoris) VHH: EVQLVESGGGSVQPGGSLTLSCGTSGRTFNVMGWFRQAPGKEREFVAAVRWSSTGIYYTQYADSVKSRFTISRDNAKNTVYLEMNSLKPEDTAVYYCAADTYNSNPARWDGYDFRGQGTQVTVSS")
"0.0029 s⁻¹"
>>> experimental_value("anti-CD4 with barcode 4-4 (VHH, secreted from Pichia pastoris) VHH: EVQLVESGGGSVQPGGSLTLSCGTSGRTFNVMGWFRQAPGKEREFVAAVRWSSTGIYYTQYADSVKSRFTISRDNAKNTVYLEMNSLKPEDTAVYYCAADTYNSNPARWDGYDFRGQGTQVTVSS")
"0.0029 s⁻¹"
>>> experimental_value("anti-CD4-FLAG (VHH, Secreted from Pichia pastoris with the alpha-factor signal, which is cleaved during secretion; also called Anri-CD4-FLAG; anti-CD4 nanobody with no barcode) VHH: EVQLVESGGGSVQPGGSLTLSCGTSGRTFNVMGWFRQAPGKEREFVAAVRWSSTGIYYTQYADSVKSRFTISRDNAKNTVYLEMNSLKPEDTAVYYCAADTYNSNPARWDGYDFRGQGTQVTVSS")
"0.0037 s⁻¹"
>>> experimental_value("anti-CD4 with barcode 4-3 (VHH, secreted from Pichia pastoris) VHH: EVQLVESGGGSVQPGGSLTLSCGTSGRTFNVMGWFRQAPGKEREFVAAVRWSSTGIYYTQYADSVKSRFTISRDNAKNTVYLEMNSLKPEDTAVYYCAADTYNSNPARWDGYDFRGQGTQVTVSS")
"0.0036 s⁻¹"
>>> experimental_value("anti-CD4 with barcode 4-2 (VHH, secreted from Pichia pastoris) VHH: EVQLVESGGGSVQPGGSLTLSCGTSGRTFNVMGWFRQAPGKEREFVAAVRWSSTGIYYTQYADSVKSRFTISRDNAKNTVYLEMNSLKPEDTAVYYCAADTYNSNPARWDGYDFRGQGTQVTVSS")
"0.0028 s⁻¹"

Reference for the values: patent US20220275417A1
